All figures here come from patent US20180099931A1.

molecular target: F508delCFTR (Homo sapiens, UniProt P13569, DEL508-508); construct: expressed in transfected cells; host or cells: CFBE41o- human lung-derived epithelial cells (CFBE4lo-F508delCFTR-HRP), doxycycline-inducible; experiment: Cell Surface Expression-Horse Radish Peroxidase (CSE-HRP) Assay; format: cell-based; details: with co-corrector (2 μM of 3-[(2R,4R)-4-({[1-(2,2-difluoro-1,3-benzodioxol-5-yl)cyclopropyl]carbonyl}amino)-7-methoxy-3,4-dihydro-2H-chromen-2-yl]benzoic acid); read-out: EC50 (with co-corrector)
Sequence (P13569 with tags, fused parts or gaps DEL508-508): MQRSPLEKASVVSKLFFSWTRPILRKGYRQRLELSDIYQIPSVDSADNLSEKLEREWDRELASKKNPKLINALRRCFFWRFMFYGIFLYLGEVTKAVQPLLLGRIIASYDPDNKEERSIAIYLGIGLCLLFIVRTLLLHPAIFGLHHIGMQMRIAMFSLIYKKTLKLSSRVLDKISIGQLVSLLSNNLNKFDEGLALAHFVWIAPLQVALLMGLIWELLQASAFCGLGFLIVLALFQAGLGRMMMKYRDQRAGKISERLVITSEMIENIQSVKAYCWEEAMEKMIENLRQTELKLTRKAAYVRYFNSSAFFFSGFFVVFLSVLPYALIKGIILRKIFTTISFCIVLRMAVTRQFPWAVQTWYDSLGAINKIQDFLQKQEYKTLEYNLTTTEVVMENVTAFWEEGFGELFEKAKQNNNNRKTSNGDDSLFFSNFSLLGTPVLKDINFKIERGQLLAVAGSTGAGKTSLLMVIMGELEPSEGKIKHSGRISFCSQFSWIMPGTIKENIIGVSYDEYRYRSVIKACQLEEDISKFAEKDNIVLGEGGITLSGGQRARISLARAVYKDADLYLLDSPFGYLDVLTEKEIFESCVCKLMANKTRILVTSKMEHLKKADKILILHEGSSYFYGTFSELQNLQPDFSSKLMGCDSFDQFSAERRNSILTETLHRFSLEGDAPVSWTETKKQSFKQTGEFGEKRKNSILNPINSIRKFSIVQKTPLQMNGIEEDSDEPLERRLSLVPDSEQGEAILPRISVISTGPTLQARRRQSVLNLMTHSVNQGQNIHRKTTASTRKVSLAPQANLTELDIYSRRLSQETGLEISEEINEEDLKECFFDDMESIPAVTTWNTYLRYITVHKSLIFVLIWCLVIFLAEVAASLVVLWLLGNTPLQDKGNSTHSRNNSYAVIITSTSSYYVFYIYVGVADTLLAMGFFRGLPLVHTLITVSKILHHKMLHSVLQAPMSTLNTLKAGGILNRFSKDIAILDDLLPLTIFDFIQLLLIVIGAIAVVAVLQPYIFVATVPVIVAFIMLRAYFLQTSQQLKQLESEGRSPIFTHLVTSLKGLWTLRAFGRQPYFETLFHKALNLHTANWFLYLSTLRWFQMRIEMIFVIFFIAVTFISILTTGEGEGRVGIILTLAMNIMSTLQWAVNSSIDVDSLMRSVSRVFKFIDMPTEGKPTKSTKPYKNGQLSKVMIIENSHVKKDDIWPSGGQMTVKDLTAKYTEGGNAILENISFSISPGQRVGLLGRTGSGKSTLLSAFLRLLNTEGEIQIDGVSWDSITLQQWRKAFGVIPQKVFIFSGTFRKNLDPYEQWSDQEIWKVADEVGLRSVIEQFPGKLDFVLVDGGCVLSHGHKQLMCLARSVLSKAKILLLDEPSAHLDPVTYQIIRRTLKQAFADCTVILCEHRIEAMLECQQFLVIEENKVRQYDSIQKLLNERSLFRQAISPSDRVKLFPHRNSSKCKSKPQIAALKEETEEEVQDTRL
Recorded EC50 values for a group of compounds are listed next.

Kindly note the recorded EC50 for COc1ccc(C(C)(C)C)cc1CN[C@H]1[C@H](C(C)(C)C)[C@@H](C(=O)O)N(C(=O)C2CCC(F)(F)C2)[C@H]1c1ccccc1 (some centres unmarked) , which is 1000 to 10000 nM

* * *

target: F508delCFTR (Homo sapiens, UniProt P13569, DEL508-508); construct: expressed in transfected cells; host or cells: CFBE41o- human lung-derived epithelial cells (CFBE4lo-F508delCFTR-HRP), doxycycline-inducible; test: Cell Surface Expression-Horse Radish Peroxidase (CSE-HRP) Assay; assay type: cell-based; conditions: with co-corrector (2 μM of 3-[(2R,4R)-4-({[1-(2,2-difluoro-1,3-benzodioxol-5-yl)cyclopropyl]carbonyl}amino)-7-methoxy-3,4-dihydro-2H-chromen-2-yl]benzoic acid); maximum at any tested concentration, normalized to on-plate positive control;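 for Maximum % activity (with co-corrector): co-corrector and positive control are both the same reference corrector at 2 µM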
Observable: Maximum % activity (with co-corrector)

COc1cnc(-c2ccccc2F)cc1CN[C@H]1[C@H](C(C)(C)C)[C@@H](C(=O)O)N(C(=O)C2CCCCC2)[C@H]1c1ccccc1
+++ (≥350)
COc1ncc(C(F)(F)F)cc1CN[C@H]1[C@H](C(C)(C)C)[C@@H](C(=O)O)N(C(=O)C2CCC(C)(C)O2)[C@H]1c1ccccc1 (stereo partly drawn)
+++ (≥350)

* * *

Biological target: F508delCFTR (Homo sapiens, UniProt P13569, DEL508-508)
Construct: expressed in transfected cells; host or cells: CFBE41o- human lung-derived epithelial cells (CFBE4lo-F508delCFTR-HRP), doxycycline-inducible
Test: Cell Surface Expression-Horse Radish Peroxidase (CSE-HRP) Assay
Assay type: cell-based
Conditions: test compound without co-corrector; read-out: EC50 (without co-corrector)
Procedure: Cell Surface Expression-Horse Radish Peroxidase (CSE-HRP) Assay The development was achieved by expressing the F508delCFTR mutation along with a horseradish peroxidase (HRP) in the fourth exofacial loop, and then measuring the HRP activity using luminescence readout from these cells, CFBE4lo-F508delCFTR-HRP, that were incubated overnight with the test corrector compounds, either without or with the co-corrector. […] The raw counts from the experiment were analyzed using Accelrys® Assay Explorer v3.3. […]
pEC50: −log10 of the molar value.
Observable: pEC50

// worked examples, pEC50 included
COc1ccc(C(C)(C)C)cc1CN[C@H]1[C@H](C(C)(C)C)[C@@H](C(=O)O)N(C(=O)CC(C)(O)C(C)C)[C@H]1c1ccccc1 (stereo partly drawn) [II-372]
5.00 to 6.00
CC(C)(C)[C@@H]1[C@@H](NCc2cc(F)ccc2S(C)(=O)=O)[C@@H](c2ccccc2)N(C(=O)C2CCCCC2)[C@H]1C(=O)O (racemic) [III-108]
< 5.00

Note: attention shifts to another entry.
pEC50 for F508delCFTR (Homo sapiens, UniProt P13569, DEL508-508) with input COc1ccc(C2CCC2)cc1CN[C@H]1[C@H](C(C)(C)C)[C@@H](C(=O)O)N(C(=O)C2CCCCC2)[C@H]1c1ccccc1 [Example I-68] equals > 6.00
